Molecular target: EPHA1 (human) (UniProt P21709)
Sequence (P21709 whole entry, looked up): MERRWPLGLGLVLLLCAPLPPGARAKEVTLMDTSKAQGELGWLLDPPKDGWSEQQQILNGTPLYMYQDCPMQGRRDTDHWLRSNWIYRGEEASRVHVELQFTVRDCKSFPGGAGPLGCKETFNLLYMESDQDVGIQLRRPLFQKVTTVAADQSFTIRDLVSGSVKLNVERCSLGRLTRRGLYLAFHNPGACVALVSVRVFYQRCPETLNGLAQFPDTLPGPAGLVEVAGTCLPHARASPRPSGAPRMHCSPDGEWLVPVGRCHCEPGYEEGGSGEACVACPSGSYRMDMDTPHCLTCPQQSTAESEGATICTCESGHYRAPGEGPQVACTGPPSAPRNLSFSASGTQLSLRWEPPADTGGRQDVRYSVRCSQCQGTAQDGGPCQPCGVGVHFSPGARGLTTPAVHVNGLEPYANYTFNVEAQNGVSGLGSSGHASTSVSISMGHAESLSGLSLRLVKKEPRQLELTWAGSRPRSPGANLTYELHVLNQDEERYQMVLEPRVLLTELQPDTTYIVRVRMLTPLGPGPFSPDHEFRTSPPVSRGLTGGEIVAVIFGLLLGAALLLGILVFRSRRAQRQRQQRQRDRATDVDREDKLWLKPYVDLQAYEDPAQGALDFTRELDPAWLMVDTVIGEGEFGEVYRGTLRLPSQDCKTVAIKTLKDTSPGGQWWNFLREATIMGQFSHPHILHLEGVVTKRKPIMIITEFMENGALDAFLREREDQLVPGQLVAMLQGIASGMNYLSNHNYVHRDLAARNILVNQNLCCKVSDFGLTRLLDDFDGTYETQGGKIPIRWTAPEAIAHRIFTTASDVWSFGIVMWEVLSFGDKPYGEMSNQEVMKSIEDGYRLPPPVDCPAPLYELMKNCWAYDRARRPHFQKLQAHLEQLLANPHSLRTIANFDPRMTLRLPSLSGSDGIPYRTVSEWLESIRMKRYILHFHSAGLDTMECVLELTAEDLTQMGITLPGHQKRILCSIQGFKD
Assay: KINOMEscan competition binding
Conditions: compound 10.0 µM
MEASURED QUANTITY: kinase still bound, per cent of control (%)

| ITEM SMILES | UNIT DESCRIPTOR | RESULT VALUE |
| --- | --- | --- |
| O=c1[nH]c2ccccc2n1C1CCN(Cc2ccc(-c3nc4cc5[nH]cnc5cc4nc3-c3ccccc3)cc2)CC1 | % | 100 |
| N#C/C(=C1/Nc2ccccc2S1)c1ccnc(NCCc2cccnc2)n1 | % | 100 |
| CCN1CCN(Cc2ccc(NC(=O)c3ccc(C)c(/C=C/c4cnc5[nH]ccc5c4OC)c3)cc2C(F)(F)F)CC1 | % | 2 |
| CCc1nc(-c2cccc(C)c2)c(-c2ccnc(NC(=O)c3ccccc3)c2)s1 | % | 56 |
| Cc1cn(-c2cc(C(=O)Nc3ccc(C)c(NC(=O)c4ccno4)c3)cc(C(F)(F)F)c2)cn1 | % | 100 |
| CC(=O)c1c(C)c2cnc(Nc3ccc(N4CCNCC4)cn3)nc2n(C2CCCC2)c1=O | % | 100 |
| COc1cc(N2CCC(C(N)=O)CC2)ccc1Nc1nc(N)c(Cl)c(Nc2ccccc2S(=O)(=O)C(C)C)n1 | % | 15 |
| N#Cc1cc(-c2ccnc(Nc3ccc(-n4cnc(-c5cccnc5)n4)cc3)n2)cc(N2CCOCC2)c1 | % | 42 |
| CCOc1cc(N2CCC(O)CC2)ccc1Nc1ncc2c(n1)N(C)c1ccccc1C(=O)N2C | % | 100 |
| CCN(CCO)CCCOc1ccc2c(Nc3cc(CC(=O)Nc4cccc(F)c4)[nH]n3)ncnc2c1 | % | 100 |
| CNC(=O)Nc1ccc(-c2nc(N3CC4CCC(C3)O4)c3cnn(C4CCC5(CC4)OCCO5)c3n2)cc1 | % | 81 |
| C=CC(=O)Nc1ccc(C(=O)c2sc(Nc3ccc(N4CCN(C)CC4)cc3OC)nc2N)cc1 | % | 100 |
| COc1ccc(N(C(=O)Oc2cc(C(=O)Nc3cccc(C(F)(F)F)c3)ccc2C)c2ccnc(Nc3ccc(N4CCN(C)CC4)cc3)n2)c(OC)c1 | % | 0.75 |

----------
# maps each entry to its kinase still bound, per cent of control
Target: UniProt P51957
Sequence (P51957 whole entry, looked up): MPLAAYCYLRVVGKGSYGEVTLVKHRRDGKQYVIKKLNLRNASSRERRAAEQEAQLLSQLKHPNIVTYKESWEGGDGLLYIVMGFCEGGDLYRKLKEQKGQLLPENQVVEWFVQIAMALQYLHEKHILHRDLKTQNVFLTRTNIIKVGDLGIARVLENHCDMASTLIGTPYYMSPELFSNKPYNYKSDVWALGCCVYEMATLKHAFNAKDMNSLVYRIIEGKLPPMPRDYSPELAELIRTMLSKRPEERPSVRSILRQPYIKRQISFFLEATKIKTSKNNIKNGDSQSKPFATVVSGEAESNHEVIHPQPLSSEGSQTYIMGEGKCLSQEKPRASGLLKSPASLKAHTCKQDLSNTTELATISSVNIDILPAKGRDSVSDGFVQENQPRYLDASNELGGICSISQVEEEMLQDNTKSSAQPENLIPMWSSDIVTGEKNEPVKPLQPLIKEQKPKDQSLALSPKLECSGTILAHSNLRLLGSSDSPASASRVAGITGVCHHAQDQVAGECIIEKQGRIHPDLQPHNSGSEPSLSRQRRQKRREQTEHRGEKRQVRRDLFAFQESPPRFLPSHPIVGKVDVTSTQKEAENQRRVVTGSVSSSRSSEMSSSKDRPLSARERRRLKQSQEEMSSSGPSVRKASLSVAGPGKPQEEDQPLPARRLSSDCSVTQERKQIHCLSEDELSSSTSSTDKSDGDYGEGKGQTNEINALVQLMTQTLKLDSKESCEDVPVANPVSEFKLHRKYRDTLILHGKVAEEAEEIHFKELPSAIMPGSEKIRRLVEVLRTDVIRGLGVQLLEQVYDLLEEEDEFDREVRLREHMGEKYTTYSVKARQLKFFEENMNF
Experiment: KINOMEscan competition binding
Settings: compound 10.0 µM
MEASURED QUANTITY: kinase still bound, per cent of control (%)

| COMPOUND | RESULT VALUE |
| --- | --- |
| O=c1[nH]c2ccccc2n1C1CCN(Cc2ccc(-c3nc4cc5[nH]cnc5cc4nc3-c3ccccc3)cc2)CC1 | 93 |
| COc1cc2c(Nc3ccc(NC(=O)c4ccccc4)cc3)ncnc2cc1OCCCN1CCOCC1 | 57 |
| CCN1CCN(Cc2ccc(NC(=O)c3ccc(C)c(/C=C/c4cnc5[nH]ccc5c4OC)c3)cc2C(F)(F)F)CC1 | 33 |
| CC(=O)c1c(C)c2cnc(Nc3ccc(N4CCNCC4)cn3)nc2n(C2CCCC2)c1=O | 20 |
| CNC(=O)Nc1ccc(-c2nc(N3CC4CCC(C3)O4)c3cnn(C4CCC5(CC4)OCCO5)c3n2)cc1 | 82 |
| CC1=C(C(=O)Nc2cc3cn[nH]c3cc2F)C(c2ccc(C(F)(F)F)cc2)CC(=O)N1 (stereo not drawn) | 85 |
| C=CC(=O)Nc1ccc(C(=O)c2sc(Nc3ccc(N4CCN(C)CC4)cc3OC)nc2N)cc1 | 97 |
| N#Cc1cc(-c2ccnc(Nc3ccc(-n4cnc(-c5cccnc5)n4)cc3)n2)cc(N2CCOCC2)c1 | 100 |
| COc1cc2ncnc(Nc3cccc(Cl)c3)c2cc1OC | 76 |
| N#C/C(=C1/Nc2ccccc2S1)c1ccnc(NCCc2cccnc2)n1 | 100 |
| CCN(CCO)CCCOc1ccc2c(Nc3cc(CC(=O)Nc4cccc(F)c4)[nH]n3)ncnc2c1 | 40 |
| CCCS(=O)(=O)Nc1ccc(F)c(C(=O)c2c[nH]c3ncc(Cl)cc23)c1F | 71 |
| CCc1nc(-c2cccc(C)c2)c(-c2ccnc(NC(=O)c3ccccc3)c2)s1 | 100 |
